System: P. aeruginosa ATCC 27853
Assay type: cell-based, Pseudomonas aeruginosa
Conditions: ATCC 27853
Residues, ends and D or L forms follow the SMILES beside them.

molecule	targetDesc	MIC P. aeruginosa ATCC 27853 [µg/mL]
CC[C@@H]1NC(=O)[C@@H](CC(C)C)NC(=O)[C@H](CCN)NC(=O)[C@@H](NC(=O)[C@H](CN)NC(=O)[C@@H](NC(=O)[C@H](CCN)NC(=O)c2c(Cl)cccc2Cl)[C@@H](C)O)CCNC(=O)[C@H]([C@@H](C)O)NC(=O)[C@H](CCN)NC(=O)[C@H](CCN)NC1=O [Lipopeptide F360] (HELM PEPTIDE1{[O=C(c1c(Cl)cccc1Cl)[*:2]].[Dab].T.[NC[C@H](N[*:1])C(=O)[*:2]].[Dab].[Dab].[dL].[Abu].[Dab].[Dab].T}$PEPTIDE1,PEPTIDE1,5:R3-11:R2$$$V2.0)	P. aeruginosa ATCC 27853	0.5
CC[C@@H]1NC(=O)[C@@H](CC(C)C)NC(=O)[C@H](CCN)NC(=O)[C@@H](NC(=O)[C@H](CN)NC(=O)[C@@H](NC(=O)[C@H](CCN)NC(=O)c2ccc(Cl)cc2F)[C@@H](C)O)CCNC(=O)[C@H]([C@@H](C)O)NC(=O)[C@H](CCN)NC(=O)[C@H](CCN)NC1=O [Lipopeptide F448] (HELM PEPTIDE1{[O=C(c1ccc(Cl)cc1F)[*:2]].[Dab].T.[NC[C@H](N[*:1])C(=O)[*:2]].[Dab].[Dab].[dL].[Abu].[Dab].[Dab].T}$PEPTIDE1,PEPTIDE1,5:R3-11:R2$$$V2.0)	P. aeruginosa ATCC 27853	0.5
CCCCCCCC(=O)N[C@@H](CCN)C(=O)N[C@H](C(=O)N[C@@H](CCN)C(=O)N[C@H]1CCNC(=O)[C@H]([C@@H](C)O)NC(=O)[C@H](CCN)NC(=O)[C@H](CCN)NC(=O)[C@H](CC(C)C)NC(=O)[C@@H]([C@H](C)O)NC(=O)[C@H](CCN)NC1=O)[C@@H](C)O [Lipopeptide F228] (HELM PEPTIDE1{[CCCCCCCC(=O)[*:2]].[Dab].T.[Dab].[Dab].[Dab].[dT].L.[Dab].[Dab].T}$PEPTIDE1,PEPTIDE1,5:R3-11:R2$$$V2.0)	P. aeruginosa ATCC 27853	0.25
CCCCCCCC(=O)N[C@@H](CCN)C(=O)N[C@H](C(=O)N[C@@H](CCN)C(=O)N[C@H]1CCNC(=O)[C@H]([C@@H](C)O)NC(=O)[C@H](CCN)NC(=O)[C@H](CCN)NC(=O)[C@H](CC)NC(=O)[C@@H](CC(C)C)NC(=O)[C@H](CCN)NC1=O)[C@@H](C)O [Lipopeptide F319] (HELM PEPTIDE1{[CCCCCCCC(=O)[*:2]].[Dab].T.[Dab].[Dab].[Dab].[dL].[Abu].[Dab].[Dab].T}$PEPTIDE1,PEPTIDE1,5:R3-11:R2$$$V2.0)	P. aeruginosa ATCC 27853	0.5

From: paper PMC8956739
